Assay System: Human FXRα Ligand Binding Domain (FXRα LBD) (Homo sapiens, UniProt Q96RI1)
Construct: polyhistidine (N); made in house; host or cells: E. coli BL21 (DE3), pRSET-A vector
Sequence (Q96RI1 236-486): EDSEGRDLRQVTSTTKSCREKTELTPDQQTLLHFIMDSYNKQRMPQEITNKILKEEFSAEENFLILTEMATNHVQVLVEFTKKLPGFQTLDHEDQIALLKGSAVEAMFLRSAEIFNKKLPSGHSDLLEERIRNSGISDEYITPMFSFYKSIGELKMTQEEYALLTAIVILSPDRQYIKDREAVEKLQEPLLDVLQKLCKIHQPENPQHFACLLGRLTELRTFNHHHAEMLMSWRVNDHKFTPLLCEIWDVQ
Measurement Notes: FXR Affinity Binding Assay: ligand mediated cofactor peptide (SRC-1 LCD2, 676-700) interaction, time resolved fluorescence
Setup Conditions: FXRα LBD-APC / europium labeled SRC-1 peptide, TRF signal, at least 2 hours at room temperature; read-out: Activity (pEC50) (converted)
Protocol: Determination of a ligand mediated cofactor peptide interaction to quantify ligand binding to the nuclear receptor Farnasoid X Receptor (FXR). […] Detection of the associated complex is measured by time resolved fluorescence (TRF). […] After equilibration, the time-resolved fluorescent signal is quantitated using a fluorescent plate reader. The affinity of the test compound is estimated from a plot of fluorescence versus concentration of test compound added. […]
Assay Endpoint: EC50

Record excerpt, results attached:
1) CC(C)c1onc(-c2c(Cl)cccc2Cl)c1COc1ccc(NS(=O)(=O)c2ccc(C(=O)O)cc2)cc1 ... 102 to 1000 nM
2) COC(=O)c1ccoc1CN(C)c1ccc(OCc2c(-c3c(Cl)cccc3Cl)noc2C(C)C)cc1C ... 102 to 1000 nM
3) Cc1cc(OCc2c(-c3c(Cl)cccc3Cl)noc2C(C)C)ccc1NS(=O)(=O)c1cccc(C(=O)O)c1 ... 102 to 1000 nM
4) COC(=O)c1cccc(OCc2ccc(OCc3c(-c4c(Cl)cccc4Cl)noc3C(C)C)cc2Cl)c1 ... 102 to 1000 nM
5) COC(=O)c1cccc(S(=O)(=O)Nc2ccc(OCc3c(-c4c(Cl)cccc4Cl)noc3C(C)C)cc2C)c1 ... 102 to 1000 nM

Input COC(=O)c1ccc(S(=O)(=O)N(C)c2ccc(OCc3c(-c4c(Cl)cccc4Cl)noc3C(C)C)cc2C)cc1 . Output EC50: 102 to 1000 nM

Input COC(=O)c1cccc(COc2ccc(OCc3c(-c4c(Cl)cccc4Cl)noc3C(C)C)cc2C)c1 . Output EC50: 102 to 1000 nM

Input CC(C)c1onc(-c2c(Cl)cccc2Cl)c1COc1ccc(NS(=O)(=O)c2cccc(C(=O)O)c2)cc1 . Output EC50: 1020 to 10000 nM

Input CC(C)c1onc(-c2ccccc2OC(F)(F)F)c1COc1ccc(N(C)S(=O)(=O)c2cccc(C(=O)O)c2)c(Cl)c1 . Output EC50: 102 to 1000 nM

Input CCc1onc(Cc2c(Cl)cccc2Cl)c1COc1ccc(N(C)Cc2cccc(C(=O)O)c2)c(C)c1 . Output EC50: 102 to 1000 nM

Input COC(=O)c1cccc(S(=O)(=O)N(C)c2ccc(OCc3c(-c4ccccc4OC(F)(F)F)noc3C(C)C)cc2Cl)c1 . Output EC50: 102 to 1000 nM

Input Cc1cc(OCc2c(-c3ccccc3OC(F)(F)F)noc2C(C)C)ccc1N(C)Cc1ccc(C(=O)O)cc1 . Output EC50: < 100 nM

Input COC(=O)c1ccc(CN(C)c2ccc(OCc3c(-c4ccccc4OC(F)(F)F)noc3C(C)C)cc2C)cc1 . Output EC50: 102 to 1000 nM

Input Cc1cc(OCc2c(-c3ccccc3OC(F)(F)F)noc2C(C)C)ccc1COc1cccc(C(=O)O)c1 . Output EC50: 102 to 1000 nM

Input CC(C)c1onc(-c2ccccc2OC(F)(F)F)c1COc1ccc(CN(C)c2cccc(C(=O)O)c2)c(Cl)c1 . Output EC50: 102 to 1000 nM

Input COC(=O)c1cccc(S(=O)(=O)N(C)c2ccc(OCc3c(-c4c(Cl)cccc4Cl)noc3C(C)C)cc2C)c1 . Output EC50: 102 to 1000 nM

Input Cc1cc(OCc2c(-c3ccccc3OC(F)(F)F)noc2C(C)C)ccc1CSc1cccc(C(=O)O)c1 . Output EC50: 102 to 1000 nM

Input Cc1cc(OCc2c(-c3c(Cl)cccc3Cl)noc2C(C)C)ccc1NC(=O)c1cccc(C(=O)O)c1 . Output EC50: 1020 to 10000 nM

Input Cc1cc(OCc2c(-c3c(Cl)cccc3Cl)noc2C(C)C)ccc1N(C)Cc1ccc(C(=O)O)cc1 . Output EC50: < 100 nM

Input COC(=O)c1cccc(S(=O)(=O)N(C)c2ccc(OCc3c(-c4ccccc4OC(F)(F)F)noc3C(C)C)cc2C)c1 . Output EC50: 102 to 1000 nM

Source listed as patent US7319109B2.
